Values from patent US8512709B2

tested on: Aβ peptide (1-40 amino acid sequence); experiment: Anti-Aβ IgG antibody titer of murine serum after immunization with Aβ peptides (ELISA on immobilized Aβ 1-40); type: in vivo, C57BL/6 mice; settings: Example 2; C57BL/6 mouse serum, Day 7 from final 3rd immunization, 100 μg/mouse
Entries and their Antibody titer Animal No. 1
Numbers only; they are read as ng/mL.

DAEFRHDSGYKGAIIGLMVGGC [1-10•28-38AACys, 1-10+28-38-amino acid Aβ peptide with addition of Cysteine] : 19149
DAEFRHDSGYKGAIIGLC [1-10•28-34AACys, 1-10+28-34-amino acid Aβ peptide with addition of Cysteine] : 29

Lab note: next sequence to report on.
Per the record, DAEFRHDSGYKGAIIGLMC [1-10•28-35AACys, 1-10+28-35-amino acid Aβ peptide with addition of Cysteine] has Antibody titer Animal No. 1 of 44

----------
system: Aβ peptide (1-40 amino acid sequence); assay: Anti-Aβ IgG antibody titer of murine serum after immunization with Aβ peptides (ELISA on immobilized Aβ 1-40); format: in vivo, C57BL/6 mice; conditions: Example 2; C57BL/6 mouse serum, Day 7 from final 3rd immunization, 100 μg/mouse
# if value of Antibody titer Animal No. 1 reaches 5000 ng/mL, tag MET; if it stays below, tag NOT MET

DAEFRHDSGYKGAIIGLMVGC [1-10•28-37AACys, 1-10+28-37-amino acid Aβ peptide with addition of Cysteine] : MET
DAEFRHDSGYKGAIIGLMVGGVVC [1-10•28-40AACys, 1-10+28-40-amino acid Aβ peptide with addition of Cysteine] : NOT MET
DAEFRHDSGYKGAIIGLMVGGVC [1-10•28-39AACys, 1-10+28-39-amino acid Aβ peptide with addition of Cysteine] : MET
DAEFRHDSGYKGAIIGLMVGGVVIAC [1-10•28-42AACys, 1-10+28-42-amino acid Aβ peptide with addition of Cysteine] : NOT MET
DAEFRHDSGYKGAIIGLMVGGVVIC [1-10•28-41AACys, 1-10+28-41-amino acid Aβ peptide with addition of Cysteine] : NOT MET

Would you kindly look at the next entry?
Check the entry DAEFRHDSGYKGAIIGLMVC [1-10•28-36AACys, 1-10+28-36-amino acid Aβ peptide with addition of Cysteine] : does Antibody titer Animal No. 1 equal or exceed 5000 ng/mL?
MET

----------
system: Aβ peptide (1-40 amino acid sequence); assay: Anti-Aβ IgG antibody titer of murine serum after immunization with Aβ peptides (ELISA on immobilized Aβ 1-40); type: in vivo, C57BL/6 mice; settings: Example 4; C57BL/6 mouse serum, Day 7 from final 3rd immunization, 100 μg/mouse
Entries and their Antibody titer Animal No. 3
Numbers only; they are read as ng/mL.

Use these answered entries as a reference point.
FRHDSGYKGAIIGLMVGC (added cysteine) [4-10•28-37AACys, 4-10+28-37-amino acid Aβ peptide with addition of Cysteine] : 53
EFRHDSGYKGAIIGLMVGC (added cysteine) [3-10•28-37AACys, 3-10+28-37-amino acid Aβ peptide with addition of Cysteine] : 4500
AEFRHDSGYKGAIIGLMVGC [2-10•28-37AACys, 2-10+28-37-amino acid Aβ peptide with addition of Cysteine] : 6094

Lab note: next sequence to report on.
Per the record, AEFRHDSGKGAIIGLMVGC (added cysteine) [2-9•28-37AACys, 2-9+28-37-amino acid Aβ peptide with addition of Cysteine] has Antibody titer Animal No. 3 of 16
